# TARGET SYSTEM: FGFR1 (UniProt P11362)
# Sequence (P11362 whole entry, looked up): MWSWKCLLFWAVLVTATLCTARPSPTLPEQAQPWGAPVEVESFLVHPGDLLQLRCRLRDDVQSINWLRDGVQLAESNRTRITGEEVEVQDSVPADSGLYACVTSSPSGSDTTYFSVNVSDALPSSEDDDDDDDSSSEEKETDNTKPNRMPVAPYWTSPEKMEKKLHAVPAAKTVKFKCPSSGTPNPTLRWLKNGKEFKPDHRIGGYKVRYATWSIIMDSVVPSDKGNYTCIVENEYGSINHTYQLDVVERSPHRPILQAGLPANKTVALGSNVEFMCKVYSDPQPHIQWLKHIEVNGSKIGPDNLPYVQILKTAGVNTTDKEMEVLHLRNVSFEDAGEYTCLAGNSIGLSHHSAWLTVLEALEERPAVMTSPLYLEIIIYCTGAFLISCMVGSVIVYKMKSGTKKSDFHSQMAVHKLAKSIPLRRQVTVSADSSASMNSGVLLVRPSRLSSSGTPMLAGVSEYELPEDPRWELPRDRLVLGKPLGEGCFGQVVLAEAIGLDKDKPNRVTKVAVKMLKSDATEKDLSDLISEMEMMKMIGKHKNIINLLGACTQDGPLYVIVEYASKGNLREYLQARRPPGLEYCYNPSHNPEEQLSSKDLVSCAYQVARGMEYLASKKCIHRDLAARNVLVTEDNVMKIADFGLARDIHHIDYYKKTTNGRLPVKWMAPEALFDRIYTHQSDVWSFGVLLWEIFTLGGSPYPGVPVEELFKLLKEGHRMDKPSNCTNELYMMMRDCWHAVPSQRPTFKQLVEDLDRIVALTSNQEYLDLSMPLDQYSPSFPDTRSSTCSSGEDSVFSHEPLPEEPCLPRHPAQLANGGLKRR
# PROTOCOL NOTES: phosphorylation enrichment, bacterial display (enrichment ratio); higher = better substrate or ligand; peptides without Tyr show the background;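 note: 11-residue human phosphosite peptides and single-mutation variants displayed on the E. coli surface, counted by deep sequencing, each peptide's frequency after selection divided by its frequency in the unselected input library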;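 note: frequency after pTyr selection over input frequency; kinase dosed for 20-30% of maximal phosphorylation in three min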
READOUT TYPE: phosphorylation enrichment

- SEQUENCE ENTRY: "SCPANYFAFKI [FAM3D_Y65_P60S]"
  TEST VALUE: 7.58
- SEQUENCE ENTRY: "KPSLKYVTYGN [GALNTL5_Y404_G401S]"
  TEST VALUE: 0.4
- SEQUENCE ENTRY: "HNLFSYPTKHE [MYO3A_Y1396_YF]"
  TEST VALUE: 0.74
- SEQUENCE ENTRY: "GQKVAYGGTGD [ALDH3A1_Y305]"
  TEST VALUE: 0.354
- SEQUENCE ENTRY: "HSQEDYFECFQ [ZIM2_Y411]"
  TEST VALUE: 10.2
- SEQUENCE ENTRY: "HNQDDYSFPSR [LDLR_Y845_G844D_YF]"
  TEST VALUE: 0.539
- SEQUENCE ENTRY: "KYRREYILSLE [GPC3_Y299_W296R]"
  TEST VALUE: 0.427
- SEQUENCE ENTRY: "IRSGIYFKPES [L2HGDH_Y102_H98R_YF]"
  TEST VALUE: 0.542
- SEQUENCE ENTRY: "KTTILHKLKLG [ARF1_Y35_Y35H]"
  TEST VALUE: 0.439
- SEQUENCE ENTRY: "FVTSMYNEILI [TRPV1_Y310_M315I]"
  TEST VALUE: 0.733
- SEQUENCE ENTRY: "RLLVVFPWTQR [HBB_Y36_Y36F]"
  TEST VALUE: 0.67
- SEQUENCE ENTRY: "VPDTNYTSDEE [STK33_Y439_A437T]"
  TEST VALUE: 0.606
- SEQUENCE ENTRY: "ETLLFYGFRRS [POR_Y564_C566Y_YF]"
  TEST VALUE: 0.58
- SEQUENCE ENTRY: "CRERPYGGGGG [FUS_Y526_R521C]"
  TEST VALUE: 0.556
- SEQUENCE ENTRY: "VMSMNYRVGAL [BCHE_Y174_V170M]"
  TEST VALUE: 0.485
- SEQUENCE ENTRY: "QHVPDYRQNVY [PCDHGA1_Y890]"
  TEST VALUE: 0.497
- SEQUENCE ENTRY: "DPNQQYYIAMD [TBX15_Y159_H156N]"
  TEST VALUE: 3.98
- SEQUENCE ENTRY: "NVFGNYNQQPS [HNRNPA2B1_Y306_D302V]"
  TEST VALUE: 0.356
- SEQUENCE ENTRY: "VGTKRYRAPEV [ACVRL1_Y375_M376R]"
  TEST VALUE: 0.298
- SEQUENCE ENTRY: "ADCRYYTFPQM [GAMT_Y223_A224T]"
  TEST VALUE: 10.9
- SEQUENCE ENTRY: "FFDANCDGKEF [MAPRE2_Y162_Y162C_YF]"
  TEST VALUE: 0.455
- SEQUENCE ENTRY: "ESMQSYDLDFP [UNC13B_Y243_D238E_YF]"
  TEST VALUE: 0.568
- SEQUENCE ENTRY: "ILGRTYYVNHE [NEDD4_Y627]"
  TEST VALUE: 0.485
- SEQUENCE ENTRY: "ADLTEYLSTHY [UQCRC1_Y219]"
  TEST VALUE: 0.52
